Tested on: COR-L23 (Non-Small Cell Lung Carcinoma)
Experiment: combination Emax (second highest fraction inhibited in the dose matrix, 72 h); higher = more inhibition; extreme values may be limits of the assay
EXPERIMENTAL_ENDPOINT: combination Emax

>>> measured("COc1cccc(OCCCN)c1-c1cc(Nc2cnc(C#N)cn2)n[nH]1 [Prexasertib] + CN(C)CCCOc1ccc(-c2ccc3ncc4c(c3c2)n(C2CCOCC2)c(=O)n4C)cn1 [AZD0156] (first compound max 1 µM, 7x7, partner max 1 µM)")
0.683
>>> measured("CC1(C)CCC(CN2CCN(c3ccc(C(=O)NS(=O)(=O)c4ccc(NCC5CCOCC5)c([N+](=O)[O-])c4)c(Oc4cnc5[nH]ccc5c4)c3)CC2)=C(c2ccc(Cl)cc2)C1 [Venetoclax] + CN(C)CCCOc1ccc(-c2ccc3ncc4c(c3c2)n(C2CCOCC2)c(=O)n4C)cn1 [AZD0156] (first compound max 1 µM, 7x7, partner max 1 µM)")
0.147
>>> measured("COc1cccc(OCCCN)c1-c1cc(Nc2cnc(C#N)cn2)n[nH]1 [Prexasertib] + Cc1cc2ncnn2cc1Nc1ncc2c(n1)n(C1CCOCC1)c(=O)n2C [AZD7648] (first compound max 1 µM, 7x7, partner max 10 µM)")
0.711
>>> measured("Cn1cnc2c(F)c(Nc3ccc(Br)cc3Cl)c(C(=O)NOCCO)cc21 [Selumetinib] + C=CCn1c(=O)c2cnc(Nc3ccc(N4CCN(C)CC4)cc3)nc2n1-c1cccc(C(C)(C)O)n1 [AZD1775] (first compound max 10 µM, partner max 1 µM)")
0.722

----------
Test system: SW1990 (Pancreatic Carcinoma)
Test: Bliss excess, mean over the matrix (fraction); higher = more synergy
EXPERIMENTAL_ENDPOINT: Bliss excess

>>> measured("CC1(C)CCC(CN2CCN(c3ccc(C(=O)NS(=O)(=O)c4ccc(NCC5CCOCC5)c([N+](=O)[O-])c4)c(Oc4cnc5[nH]ccc5c4)c3)CC2)=C(c2ccc(Cl)cc2)C1 [Venetoclax] + C[C@@H]1COCCN1C2=NC(=NC(=C2)C3(CC3)[S@](=N)(=O)C)C4=C5C=CNC5=NC=C4 [AZD6738] (first compound max 1 µM, 7x7, partner max 10 µM)")
-0.0556
>>> measured("CN(CCO)CC[C@H](CSc1ccccc1)Nc1ccc(S(=O)(=O)NC(=O)c2ccc(N3CCC([C@@H](O)c4ccccc4-c4ccc(Cl)cc4)CC3)cc2)cc1S(=O)(=O)C(F)(F)F [AZD4320] + CS(=O)(=O)CCNCc1ccc(-c2ccc3ncnc(Nc4ccc(OCc5cccc(F)c5)c(Cl)c4)c3c2)o1 [Lapatinib] (first compound max 1 µM, 7x7, partner max 10 µM)")
-0.0093
>>> measured("CCN(CCO)CCCOc1ccc2c(Nc3cc(CC(=O)Nc4cccc(F)c4)[nH]n3)ncnc2c1 [AZD2811] + C=CCn1c(=O)c2cnc(Nc3ccc(N4CCN(C)CC4)cc3)nc2n1-c1cccc(C(C)(C)O)n1 [AZD1775] (first compound max 1 µM, partner max 1 µM)")
-0.0403
>>> measured("CN(CCO)CC[C@H](CSc1ccccc1)Nc1ccc(S(=O)(=O)NC(=O)c2ccc(N3CCC([C@@H](O)c4ccccc4-c4ccc(Cl)cc4)CC3)cc2)cc1S(=O)(=O)C(F)(F)F [AZD4320] + Nc1ccn([C@@H]2O[C@H](CO)[C@@H](O)C2(F)F)c(=O)n1 [Gemcitabine] (first compound max 1 µM, 7x7, partner max 0.3 µM)")
0.0103
>>> measured("N#Cc1cnc(Nc2cc(NC[C@H]3CNCCO3)c(C(F)(F)F)cn2)cn1 [SRA737] + C=CCn1c(=O)c2cnc(Nc3ccc(N4CCN(C)CC4)cc3)nc2n1-c1cccc(C(C)(C)O)n1 [AZD1775] (first compound max 10 µM, partner max 1 µM)")
-0.0149
>>> measured("CC1(C)CCC(CN2CCN(c3ccc(C(=O)NS(=O)(=O)c4ccc(NCC5CCOCC5)c([N+](=O)[O-])c4)c(Oc4cnc5[nH]ccc5c4)c3)CC2)=C(c2ccc(Cl)cc2)C1 [Venetoclax] + C1CN(CCC1(C(=O)N[C@@H](CCO)C2=CC=C(C=C2)Cl)N)C3=NC=NC4=C3C=CN4 [Capivasertib] (first compound max 1 µM, 7x7, partner max 3 µM)")
-0.064
>>> measured("Cn1cnc2c(F)c(Nc3ccc(Br)cc3Cl)c(C(=O)NOCCO)cc21 [Selumetinib] + CC(C)n1c(=O)n(C)c2cnc3cc(F)c(-c4ccc(OCCCN5CCCCC5)nc4)cc3c21 [AZD1390] (first compound max 10 µM, 7x7, partner max 0.3 µM)")
-0.0434

----------
# combination Emax per entry
Test system: NCI-H1299 (Non-Small Cell Lung Carcinoma)
Assay: combination Emax (second highest fraction inhibited in the dose matrix, 72 h); higher = more inhibition; extreme values may be limits of the assay
EXPERIMENTAL_ENDPOINT: combination Emax

>>> measured("NC1(C(=O)N[C@@H](CCO)c2ccc(Cl)cc2)CCN(c2ncnc3[nH]ccc23)CC1 [Capivasertib] + CC(C)n1c(=O)n(C)c2cnc3cc(F)c(-c4ccc(OCCCN5CCCCC5)nc4)cc3c21 [AZD1390] (first compound max 10 µM, 7x7, partner max 0.3 µM)")
0.254
>>> measured("N#Cc1cnc(Nc2cc(NC[C@H]3CNCCO3)c(C(F)(F)F)cn2)cn1 [SRA737] + Nc1ccn([C@@H]2O[C@H](CO)[C@@H](O)C2(F)F)c(=O)n1 [Gemcitabine] (first compound max 10 µM, 7x7, partner max 0.3 µM)")
0.765
>>> measured("Cn1cnc2c(F)c(Nc3ccc(Br)cc3Cl)c(C(=O)NOCCO)cc21 [Selumetinib] + C=CCn1c(=O)c2cnc(Nc3ccc(N4CCN(C)CC4)cc3)nc2n1-c1cccc(C(C)(C)O)n1 [AZD1775] (first compound max 10 µM, partner max 1 µM)")
0.652

----------
Recorded Bliss excess values for a group of compounds are listed next.
Tested on: HPAC (Pancreatic Carcinoma)
Assay: Bliss excess, mean over the matrix (fraction); higher = more synergy
EXPERIMENTAL_ENDPOINT: Bliss excess

>>> measured("Cc1cc2ncnn2cc1Nc1ncc2c(n1)n(C1CCOCC1)c(=O)n2C [AZD7648] + C=CCn1c(=O)c2cnc(Nc3ccc(N4CCN(C)CC4)cc3)nc2n1-c1cccc(C(C)(C)O)n1 [AZD1775] (first compound max 10 µM, partner max 1 µM)")
0.0067
>>> measured("CC(=O)c1c(C)c2cnc(Nc3ccc(N4CCNCC4)cn3)nc2n(C2CCCC2)c1=O [Palbociclib] + CC1(C)CCC(CN2CCN(c3ccc(C(=O)NS(=O)(=O)c4ccc(NCC5CCOCC5)c([N+](=O)[O-])c4)c(Oc4cnc5[nH]ccc5c4)c3)CC2)=C(c2ccc(Cl)cc2)C1 [Venetoclax] (first compound max 10 µM, 7x7, partner max 1 µM)")
-0.0619

----------
Tested on: NCI-H1694 (Small Cell Lung Carcinoma)
Assay: combination Emax (second highest fraction inhibited in the dose matrix, 72 h); higher = more inhibition; extreme values may be limits of the assay
EXPERIMENTAL_ENDPOINT: combination Emax

>>> measured("Cn1cnc2c(F)c(Nc3ccc(Br)cc3Cl)c(C(=O)NOCCO)cc21 [Selumetinib] + CCN(CCO)CCCOc1ccc2c(Nc3cc(CC(=O)Nc4cccc(F)c4)[nH]n3)ncnc2c1 [AZD2811] (first compound max 10 µM, 7x7, partner max 1 µM)")
0.385
>>> measured("Cc1cc2ncnn2cc1Nc1ncc2c(n1)n(C1CCOCC1)c(=O)n2C [AZD7648] + CN(C)CCCOc1ccc(-c2ccc3ncc4c(c3c2)n(C2CCOCC2)c(=O)n4C)cn1 [AZD0156] (first compound max 10 µM, 7x7, partner max 1 µM)")
0.165

----------
Overview of recorded combination Emax for various compounds
Tested on: DSH1 (Bladder Carcinoma)
Experiment: combination Emax (second highest fraction inhibited in the dose matrix, 72 h); higher = more inhibition; extreme values may be limits of the assay
EXPERIMENTAL_ENDPOINT: combination Emax

>>> measured("CN(CCO)CC[C@H](CSc1ccccc1)Nc1ccc(S(=O)(=O)NC(=O)c2ccc(N3CCC([C@@H](O)c4ccccc4-c4ccc(Cl)cc4)CC3)cc2)cc1S(=O)(=O)C(F)(F)F [AZD4320] + CCN(CCO)CCCOc1ccc2c(Nc3cc(CC(=O)Nc4cccc(F)c4)[nH]n3)ncnc2c1 [AZD2811] (first compound max 1 µM, 7x7, partner max 1 µM)")
0.819
>>> measured("Cc1c2c(nn1C)CSCc1cc(n(C)n1)CSc1cc(c3ccccc3c1)OCCCc1c(C(=O)O)n(C)c3c-2c(Cl)ccc13 [AZD5991] + Cc1cc2ncnn2cc1Nc1ncc2c(n1)n(C1CCOCC1)c(=O)n2C [AZD7648] (first compound max 1 µM, 7x7, partner max 10 µM)")
0.67
>>> measured("NC1(C(=O)N[C@@H](CCO)c2ccc(Cl)cc2)CCN(c2ncnc3[nH]ccc23)CC1 [Capivasertib] + CC(C)n1c(=O)n(C)c2cnc3cc(F)c(-c4ccc(OCCCN5CCCCC5)nc4)cc3c21 [AZD1390] (first compound max 10 µM, 7x7, partner max 0.3 µM)")
0.615
>>> measured("CC1(C)CCC(CN2CCN(c3ccc(C(=O)NS(=O)(=O)c4ccc(NCC5CCOCC5)c([N+](=O)[O-])c4)c(Oc4cnc5[nH]ccc5c4)c3)CC2)=C(c2ccc(Cl)cc2)C1 [Venetoclax] + CCN(CCO)CCCOc1ccc2c(Nc3cc(CC(=O)Nc4cccc(F)c4)[nH]n3)ncnc2c1 [AZD2811] (first compound max 1 µM, 7x7, partner max 1 µM)")
0.271
